The measured values listed here are drawn from PubChem BioAssay (NCATS).

Assay: qHTS of pediatric cancer cell lines to identify multiple opportunities for drug repurposing: Primary screen for MG 63 (6-TG R) cells (AID 1347105); further: on the % scale 0 is the no-effect control and ±100 the full control effect; nearly all actives have a fitted effect of over 50% in size
Details: MG 63 (6-TG R) viability, CellTiter-Glo, 48 h; series mostly up to 46 µM
Results filed as inconclusive are left out. Calls of active or inactive are those of the source. The call rests on the fitted dose curve; in most records, active means well fitted cell-killing curve with a large enough effect; inconclusive means small, poorly fitted or top-dose-only effect; inactive means no such curve, though single readings can be large or run the other way. Where a SMILES comes first, the peptide text is derived from it. Bridges are numbered along the chain shown (N, C = ends). [ ]: non-standard residue; d: D form. hArg = N=C(N)NCCCC[C@H](N)C(=O)O; Mpa = O=C(O)CCS

{"columns": ["Compound", "activity change, negative = cytotoxic"],
 "data": [
  ["CCOC(=O)OC(C)OC(=O)[C@@H]1N2C(=O)[C@@H](NC(=O)[C@H](N)c3ccccc3)[C@H]2SC1(C)C (stereo partly specified)", "inactive"],
  ["CCOC(=O)[C@H](CCc1ccccc1)N[C@@H](C)C(=O)N1Cc2cc(OC)c(OC)cc2C[C@H]1C(=O)O", "inactive"],
  ["Cc1c(Cn2ccnc2)c2ccccc2n1CCC(=O)O", "inactive"],
  ["Cc1cc(OI)c(C(C)C)cc1-c1cc(C(C)C)c(OI)cc1C", "inactive"],
  ["NC(=O)[C@@H]1CSSCCC(=O)N[C@@H](CCCCN=C(N)N)C(=O)NCC(=O)N[C@@H](CC(=O)O)C(=O)N[C@@H](Cc2c[nH]c3ccccc23)C(=O)N2CCC[C@H]2C(=O)N1 ([Mpa][hArg]GDWPC-NH2; disulfide 1-7)", "inactive"],
  ["Cc1cc(O)cc(C)c1Cl", "inactive"],
  ["CC(C)(C)NCC(O)COc1cccc2c1CCC(=O)N2 (stereo unspecified)", "inactive"],
  ["CN[C@@H]1[C@H](O)[C@H](NC)[C@H]2O[C@@]3(O)C(=O)C[C@@H](C)O[C@H]3O[C@@H]2[C@H]1O", "inactive"],
  ["O=C(NCN1CCOCC1)c1cnccn1", "inactive"],
  ["CCOC(=O)[C@H](CCc1ccccc1)N[C@@H](C)C(=O)N1CCC[C@H]1C(=O)O", "inactive"],
  ["COC(=O)c1ccc(O)cc1", "inactive"],
  ["Cc1cc(-n2nc3ccc(Cl)cc3n2)c(O)c(C(C)(C)C)c1", "inactive"],
  ["Cc1cc(NC(=O)C2=C(O)c3ccccc3S(=O)(=O)N2C)no1", "inactive"],
  ["O=C(/C=C/c1ccccc1)OCc1ccccc1", "inactive"],
  ["C[N+]1(C)CCCC(OC(=O)C(O)(c2ccccc2)c2ccccc2)C1 (stereo unspecified)", "inactive"],
  ["COC(=O)c1cccnc1", "inactive"],
  ["CCCCC1(COC(=O)CCC(=O)O)C(=O)N(c2ccccc2)N(c2ccccc2)C1=O", "inactive"],
  ["CCCNC(C)(C)COC(=O)c1ccccc1", "inactive"],
  ["CCN(CC)CC1CCCCN1CC(=O)N1c2ccccc2C(=O)Nc2cccnc21 (stereo unspecified)", "inactive"],
  ["O=C1c2cccc(O)c2C(=O)c2c(O)cccc21", "inactive"],
  ["O=C(Cn1ccnc1[N+](=O)[O-])NCc1ccccc1", "inactive"]
]}

----------
Target: Cytochrome P450 1A2 (Homo sapiens)
Experiment: p450-cyp1a2 (AID 410)
Details: recombinant CYP1A2, luciferin-ME demethylation, luminescence; series mostly up to 25.6 µM
Records with an inconclusive call do not appear. Calls of active or inactive are those of the source. The call rests on the fitted dose curve.
Classes used: T = active, F = inactive

{"columns": ["Smiles Structure", "Measured Target", "Answer Label"],
 "data": [
  ["CN(C(=O)c1c(O)c2ccccc2n(C)c1=O)c1ccccc1", "Cytochrome P450 1A2 (Homo sapiens)", "F"],
  ["C[N+](C)(C)CC[N+]1(C)Cc2c(Cl)c(Cl)c(Cl)c(Cl)c2C1", "Cytochrome P450 1A2 (Homo sapiens)", "F"],
  ["CC(C)(C)C(=O)OCOC(=O)[C@@H]1N2C(=O)[C@@H](NC(=O)[C@H](N)c3ccccc3)[C@H]2SC1(C)C", "Cytochrome P450 1A2 (Homo sapiens)", "F"],
  ["Cc1cc(C)nc(NS(=O)(=O)c2ccc(N)cc2)n1", "Cytochrome P450 1A2 (Homo sapiens)", "F"],
  ["Cn1c([N+](=O)[O-])cnc1COC(N)=O", "Cytochrome P450 1A2 (Homo sapiens)", "F"],
  ["NS(=O)(=O)c1ccc(C(=O)O)cc1", "Cytochrome P450 1A2 (Homo sapiens)", "F"],
  ["O=C(O)c1ccccc1OP(=O)(O)O", "Cytochrome P450 1A2 (Homo sapiens)", "F"],
  ["CCN(CC)CCc1nc(-c2ccccc2)no1", "Cytochrome P450 1A2 (Homo sapiens)", "T"],
  ["Cn1c(=O)c2c(ncn2CCO)n(C)c1=O", "Cytochrome P450 1A2 (Homo sapiens)", "F"],
  ["Cc1cccc(Nc2ccccc2C(=O)O)c1C", "Cytochrome P450 1A2 (Homo sapiens)", "T"],
  ["CCN(CC)CCOC(=O)C(c1ccccc1)c1ccccc1", "Cytochrome P450 1A2 (Homo sapiens)", "T"],
  ["CCc1cccc(CC)c1NC(=O)CN(CC(=O)O)CC(=O)O", "Cytochrome P450 1A2 (Homo sapiens)", "F"],
  ["CN/C(=C\\[N+](=O)[O-])NCCSCc1csc(CN(C)C)n1", "Cytochrome P450 1A2 (Homo sapiens)", "F"],
  ["COc1ccc2cc(CCC(C)=O)ccc2c1", "Cytochrome P450 1A2 (Homo sapiens)", "T"]
]}

----------
Test system: CP268
Assay: qHTS profiling for inhibitors of Plasmodium falciparum proliferation (AID 504749);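 further: 0% = DMSO vehicle and full inhibition = artemisinin control; nearly all actives have a fitted effect of over 60% in size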
Settings: P. falciparum in erythrocytes, SYBR Green DNA, 72 h; series mostly up to 28.7 µM
Records with an inconclusive call do not appear. Calls of active or inactive are those of the source. Calls come from the whole dose curve; as a rule, active = well fitted inhibition curve with a large enough effect; inconclusive = small, poorly fitted or top-dose-only effect; inactive = flat fitted curve, though single readings scatter.

{"columns": ["Smiles Structure", "outcome"],
 "data": [
  ["NNc1nnc(NN)c2ccccc12", "inactive"],
  ["Cc1cccc(Nc2ccccc2C(=O)O)c1C", "inactive"],
  ["COc1ccc2cc(CCC(C)=O)ccc2c1", "inactive"],
  ["CC(=O)Nc1ccc(C(=O)O)cc1", "inactive"],
  ["Cc1cc(C)c(NC(=O)CN(CC(=O)O)CC(=O)O)c(C)c1Br", "inactive"],
  ["NS(=O)(=O)c1cc2c(cc1C(F)(F)F)NCNS2(=O)=O", "inactive"],
  ["CN/C(=C\\[N+](=O)[O-])NCCSCc1csc(CN(C)C)n1", "inactive"],
  ["CCS(=O)(=O)CCn1c([N+](=O)[O-])cnc1C", "inactive"]
]}

----------
Measured max response values are reported for all entries that follow.
Assay: qHTS Assay for Lipid Storage Modulators (AID 1519)
Details: Drosophila S3 cells, BODIPY lipid droplet/cell ratio, laser cytometry; measured here: cell count channel max response; cells loaded with oleic acid
Description: NIH Molecular Libraries Probe Production Centers Network [MLPCN] NIH Chemical Genomics Center [NCGC] Assay Submitter (PI): Beller, Mathias; Max-Planck-Institut fur Biophysikalische Chemie […] We dispensed 4 uL of cells at 1.25 x 10^6 cells/mL into LoBase Aurora COC 1,536-well plates (black walled, clear bottom) with a bottle-valve solenoid-based dispenser (Aurora) to obtain 5,000 cells/well. […] The ratio of the total intensity in PMT channel 1 over total intensity of channel 3 was also calculated. […]
Records with an inconclusive call do not appear.

{"columns": ["Compound", "max response [%]"],
 "data": [
  ["CCCCCC(C)N (stereo not drawn)", -12.5],
  ["CC(=O)NCc1c(I)c(NC(C)=O)c(I)c(C(=O)O)c1I", 17.6],
  ["Cc1c(N(C)C)c(=O)n(-c2ccccc2)n1C", -0.692],
  ["O=C(O)COC(=O)Cc1ccccc1Nc1c(Cl)cccc1Cl", -9.2],
  ["COc1ccc2cc(CCC(C)=O)ccc2c1", -11.1],
  ["CCOC(=O)[C@H](CCc1ccccc1)N[C@@H](C)C(=O)N1CCC[C@H]1C(=O)O", -1.26],
  ["COc1ccccc1OCC(O)CO (stereo not drawn)", -0.08],
  ["CCN(CC)C(=O)c1cccc(C)c1", 15.5],
  ["CCOC(N)=O", 18.8],
  ["CC(N)CCCC(C)(C)O (stereo not drawn)", 25.6],
  ["C[N+](C)(C)CC[N+]1(C)Cc2c(Cl)c(Cl)c(Cl)c(Cl)c2C1", -22.8],
  ["Cc1cc(O)cc(C)c1Cl", -12.4],
  ["O=C(O)CCCCC1CCSS1 (stereo not drawn)", 11.5],
  ["CC(=O)SC[C@@H](Cc1ccccc1)C(=O)NCC(=O)OCc1ccccc1", -8.69],
  ["CN[C@@H]1[C@H](O)[C@H](NC)[C@H]2O[C@@]3(O)C(=O)C[C@@H](C)O[C@H]3O[C@@H]2[C@H]1O", 7.5],
  ["CCCCOC(=O)c1ccc(N)cc1", -14.7],
  ["Cc1onc(-c2ccccc2)c1-c1ccc(S(N)(=O)=O)cc1", 11.6],
  ["NC(=O)NC1NC(=O)NC1=O (stereo not drawn)", 2.56],
  ["NC(=O)c1ccc([N+](=O)[O-])cc1Cl", -11.1],
  ["C/C=C/C(=O)N(CC)c1ccccc1C", 2.55],
  ["CC(=O)Oc1cccc(O)c1", 7.77],
  ["C[C@@H]1CCC[C@H](C)N1", -4.31],
  ["Nc1ccc(S(=O)(=O)c2ccc(N)cc2)cc1", 4.2]
]}
